Target: Eukaryotic initiation factor 4A-I (Homo sapiens, UniProt P60842)
Sequence (P60842 whole entry): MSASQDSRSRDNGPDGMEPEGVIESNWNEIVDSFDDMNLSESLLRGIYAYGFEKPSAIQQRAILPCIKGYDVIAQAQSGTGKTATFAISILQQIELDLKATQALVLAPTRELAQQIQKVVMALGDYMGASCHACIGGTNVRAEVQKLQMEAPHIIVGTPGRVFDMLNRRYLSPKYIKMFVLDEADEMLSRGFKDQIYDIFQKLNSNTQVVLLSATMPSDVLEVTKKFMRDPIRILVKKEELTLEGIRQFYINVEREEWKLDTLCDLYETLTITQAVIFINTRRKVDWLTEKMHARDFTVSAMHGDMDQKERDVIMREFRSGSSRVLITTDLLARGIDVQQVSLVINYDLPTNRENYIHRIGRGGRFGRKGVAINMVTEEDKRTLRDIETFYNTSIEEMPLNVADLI
Readout label: IC50 (µM)
Write it as a number; the unit µM goes unstated.

// IC50 (Eukaryotic initiation factor 4A-I (Homo sapiens, UniProt P60842)) for "C=C1C[C@@H](O)[C@@H](Br)C(C)(C)[C@]12CCC(C)=C(Cl)C2" = 16.4

* * *

Target: EIF4E/EIF4G1 (Homo sapiens, UniProt P06730+Q04637)
Sequence (P06730 whole entry): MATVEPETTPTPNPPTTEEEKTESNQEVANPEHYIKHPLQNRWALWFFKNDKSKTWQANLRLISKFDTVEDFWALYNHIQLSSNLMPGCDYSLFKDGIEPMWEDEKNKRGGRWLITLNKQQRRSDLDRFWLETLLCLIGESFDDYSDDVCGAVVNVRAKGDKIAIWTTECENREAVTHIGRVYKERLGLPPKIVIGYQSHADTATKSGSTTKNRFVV
Sequence (Q04637 whole entry): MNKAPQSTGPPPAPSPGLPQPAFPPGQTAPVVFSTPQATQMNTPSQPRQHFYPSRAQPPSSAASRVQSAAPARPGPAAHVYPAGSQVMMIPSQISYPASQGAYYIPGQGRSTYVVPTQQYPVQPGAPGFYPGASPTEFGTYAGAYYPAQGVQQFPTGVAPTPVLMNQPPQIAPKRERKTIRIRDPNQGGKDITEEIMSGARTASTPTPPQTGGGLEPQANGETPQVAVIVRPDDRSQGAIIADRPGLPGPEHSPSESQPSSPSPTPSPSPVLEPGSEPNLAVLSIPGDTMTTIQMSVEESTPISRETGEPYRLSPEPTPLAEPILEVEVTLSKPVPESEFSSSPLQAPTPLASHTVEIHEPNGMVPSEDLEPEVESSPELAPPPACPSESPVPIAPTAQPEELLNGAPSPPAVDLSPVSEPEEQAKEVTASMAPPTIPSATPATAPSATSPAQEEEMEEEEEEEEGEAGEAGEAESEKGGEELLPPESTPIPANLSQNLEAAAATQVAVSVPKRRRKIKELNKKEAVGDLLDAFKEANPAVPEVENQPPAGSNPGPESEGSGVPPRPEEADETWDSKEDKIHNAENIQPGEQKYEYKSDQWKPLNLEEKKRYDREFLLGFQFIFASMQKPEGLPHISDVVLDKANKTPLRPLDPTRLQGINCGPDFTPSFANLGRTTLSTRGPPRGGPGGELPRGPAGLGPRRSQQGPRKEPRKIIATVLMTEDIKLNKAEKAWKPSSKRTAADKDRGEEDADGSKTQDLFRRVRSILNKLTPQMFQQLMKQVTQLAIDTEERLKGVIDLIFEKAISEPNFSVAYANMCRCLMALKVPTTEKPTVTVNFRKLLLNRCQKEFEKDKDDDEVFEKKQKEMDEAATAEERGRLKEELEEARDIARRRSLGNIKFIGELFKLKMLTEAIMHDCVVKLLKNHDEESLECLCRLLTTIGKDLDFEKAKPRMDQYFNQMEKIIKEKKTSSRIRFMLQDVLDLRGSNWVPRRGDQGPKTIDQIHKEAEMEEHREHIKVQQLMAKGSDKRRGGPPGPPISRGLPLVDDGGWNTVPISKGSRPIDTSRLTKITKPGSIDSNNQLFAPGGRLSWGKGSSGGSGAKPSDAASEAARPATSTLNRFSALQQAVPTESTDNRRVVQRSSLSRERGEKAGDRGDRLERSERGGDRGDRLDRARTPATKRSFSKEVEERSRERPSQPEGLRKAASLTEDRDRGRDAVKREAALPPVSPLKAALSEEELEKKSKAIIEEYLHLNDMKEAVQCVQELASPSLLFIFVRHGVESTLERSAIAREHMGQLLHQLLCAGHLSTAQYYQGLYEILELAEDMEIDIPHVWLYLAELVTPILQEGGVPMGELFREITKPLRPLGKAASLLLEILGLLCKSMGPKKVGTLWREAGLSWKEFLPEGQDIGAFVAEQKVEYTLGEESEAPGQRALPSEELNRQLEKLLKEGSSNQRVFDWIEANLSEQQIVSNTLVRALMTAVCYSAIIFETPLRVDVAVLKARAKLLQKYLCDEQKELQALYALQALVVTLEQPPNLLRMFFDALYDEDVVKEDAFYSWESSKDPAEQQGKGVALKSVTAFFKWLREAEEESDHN
Readout label: IC50 (µM)
Quick reminder: number only, in µM, skip the unit.

For reference, reported IC50 for "O=C(O)c1cc(-c2ccc(/C=C3\SC(=S)N(Cc4ccccc4)C3=O)o2)ccc1Cl" stands at 13.5
